The origin of these recorded values is patent US11447486B2.

- System: Rat whole blood (RWB)
- assay: LTB4 secretion assay in RWB (rat whole blood)
- Assay type: cell-based
- measurement.setup: Rattus norvegicus
pEC50: −log10 of the molar value.
Consider the following compounds; for each one, report its pEC50.

Summary for this compound, CNc1nc2ccc(N)cc2n1Cc1ccc(Oc2ccc(Cl)cn2)cc1 [Compound 229] : pEC50 is > 5.00

# pEC50 (compound: Cn1c(NCc2ccc(Oc3ncc(F)cn3)cc2)nc2ccc(NC3COC3)cc21 [Compound 337] ) is 4.70 to 5.00

Consider Cn1nc(Nc2ccc3nc(NCc4ccc(Oc5ncc(Cl)cn5)cc4F)n(C)c3c2)cc1C(F)(F)F [Compound 503] . Its measured pEC50 is > 5.00

# pEC50 (compound: Clc1ccc(Oc2ccc(CNc3nc4cc(NC5COC5)ccc4[nH]3)cc2)nc1 [Compound 166] ) is > 5.00

// recorded pEC50 for CN(C)c1nc2cc(NCc3ccc(Oc4ccc(OC(F)(F)F)cc4)cc3)ccc2[nH]1 [Compound 126] : < 4.70

# pEC50 of CC(C)(C)c1ccc(CNc2nc3ccc(N)cc3[nH]2)cc1 [Compound 116] = 4.70 to 5.00

pEC50 recorded for this compound, Cc1cc(Oc2ncc(Cl)cn2)cc(C)c1CNc1nc2ccc(NC3COC3)cc2n1C [Compound 417] , is < 4.70

Looking up Cn1ccc(Nc2ccc3nc(NCc4ccc(Oc5ncc(Cl)cn5)cc4)n(C)c3c2F)n1 [Compound 487] , I found its pEC50 recorded as > 5.00

Form field pEC50, entry CN(C)c1nc2cc(NCc3ccc(Oc4ccc(Cl)cc4)cc3)ccc2[nH]1 [Compound 123] : > 5.00

Memo: Cn1c(NCCOc2ccc(OC(F)(F)F)cc2)nc2ccc(N)cc21 [Compound 52] , reported pEC50: > 5.00

Item: CN(C)c1nc2ccc(NCc3ccc(-c4ccc(Cl)cn4)cc3)cc2[nH]1 [Compound 197] | pEC50: < 4.70

In plain terms, CCC(Nc1nc2ccc(Nc3cc(C(F)(F)F)n(C)n3)cc2n1C)c1ccc(Oc2ncc(C(F)(F)F)cn2)cc1F (centres unmarked) [Compound 528] has a documented pEC50 of > 5.00

# pEC50 (compound: Cc1cc(Nc2ccc3nc(NCc4ccc(Oc5ccc(C(F)(F)F)cn5)cc4)n(C)c3c2)n[nH]1 [Compound 495] ) is > 5.00

Please fill in: pEC50 reported for Cn1c(NCc2c(F)cc(Oc3ncc(Cl)cn3)cc2F)nc2ccc(NC3COC3)cc21 [Compound 431] = > 5.00

The reported value for CCC(Nc1nc2ccc(Nc3cc(C)[nH]n3)cc2n1C)c1ccc(Oc2ncc(C(F)(F)F)cn2)cc1 (centres unmarked) [Compound 534] in terms of pEC50 is > 5.00

pEC50 reading for CCOC(=O)c1c[nH]nc1Nc1ccc2nc(N)n(CCOc3ccc(OC(F)(F)F)cc3)c2c1 [Compound 22] : < 4.70

// CC(Nc1nc2ccc(NC3COC3)cc2n1C)c1ccc(Oc2ccc(Cl)cn2)cc1 (centres unmarked) [Compound 256] : pEC50 value = > 5.00

Record summary for Cn1c(NCc2ccc(Oc3ccc(Cl)nc3)cc2)nc2ccc(NC3COC3)cc21 [Compound 281] : reported pEC50 = > 5.00

Quick note, pEC50 for Nc1ccc2[nH]c(NCc3ccc(N4CCC(c5ccc(OC(F)(F)F)cc5)CC4)cc3)nc2c1 [Compound 108] landed at < 4.70

Entry Nc1ccc2[nH]c(NCc3ccc(N4CCOCC4)cc3)nc2c1 [Compound 7] — recorded pEC50 = < 4.70
